// values below are reported ED50
tested on: anaesthetised cats; assay: Cardiac stimulant activity in vivo (anaesthetised cats, left ventricular dp/dt max); conditions: Felis catus, read-out: ED50 (dose to increase left ventricular dp/dt max by 50%); anaesthetised cats pretreated with pempidine and propranolol, intravenous

>  <compound>
CC1CC(=O)NN=C1c1ccc(Nc2nc(=O)cc[nH]2)cc1 (stereo not shown) [Example 1]

>  <ED50 [µmol/kg]>
0.06

$$$$
>  <compound>
CC1CC(=O)NN=C1c1ccc(Nc2nc(=O)c3ccccc3[nH]2)cc1 (stereo not shown) [Example 4]

>  <ED50 [µmol/kg]>
0.41

$$$$
>  <compound>
Cc1c[nH]c(Nc2ccc(C3=NNC(=O)CC3C)cc2)nc1=O (stereo not shown) [Example 3]

>  <ED50 [µmol/kg]>
3.03

$$$$
>  <compound>
Nc1cc(-c2ccncc2)c[nH]c1=O [Amrinone, reference compound]

>  <ED50 [µmol/kg]>
5.6

$$$$

// provenance: patent EP0197664A2
